System: Oryza sativa
Test: Post-emergence crop plant compatibility
Format: in vivo
Conditions: application rate 5 g/ha
ENDPOINT_LABEL: Oryza sativa (efficacy in %)
All answers are understood in %, so give the number only.

Look over these answered cases.
# MOLECULE, TEST_SYSTEM, ENDPOINT_LABEL, UNIT_DESCRIPTOR, READOUT_NUMBER
measured = [
    ("CCCCOC(=O)COc1ncccc1Sc1cc(-n2c(=O)cc(C(F)(F)F)n(N)c2=O)c(F)cc1Cl [I.1-447]", "Oryza sativa", "Oryza sativa (efficacy in %)", "%", 10),
    ("Nn1c(C(F)(F)F)cc(=O)n(-c2cc(Sc3cccnc3OCC(=O)O)c(Cl)cc2F)c1=O [I.1-481]", "Oryza sativa", "Oryza sativa (efficacy in %)", "%", 20),
    ("COCCOCCOC(=O)COc1ncc(F)cc1Sc1cc(-n2c(=O)cc(C(F)(F)F)n(N)c2=O)c(F)cc1Cl [I.31-23]", "Oryza sativa", "Oryza sativa (efficacy in %)", "%", 20),
    ("CCOC(=O)COc1ncccc1Sc1cc(-n2c(=O)cc(C(F)(F)F)n(N)c2=O)c(F)cc1Cl [I.1-442]", "Oryza sativa", "Oryza sativa (efficacy in %)", "%", 20),
    ("CCOC(=O)C(C)Oc1ncccc1Sc1cc(-n2c(=O)cc(C(F)(F)F)n(N)c2=O)c(F)cc1Cl (stereo not drawn) [I.2-442]", "Oryza sativa", "Oryza sativa (efficacy in %)", "%", 0),
]

Task: Which value of Oryza sativa (efficacy in %) has been reported for COC(=O)COc1ncccc1Sc1cc(-n2c(=O)cc(C(F)(F)F)n(N)c2=O)c(F)cc1Cl [I.1-441] in the records?
Output: 20

Task: // lookup Oryza sativa (efficacy in %) for CCOC(=O)CCOc1ncccc1Sc1cc(-n2c(=O)cc(C(F)(F)F)n(N)c2=O)c(F)cc1Cl [I.5-442]
Output: 20

Task: Recorded Oryza sativa (efficacy in %) for CCOC(=O)COc1ncc(F)cc1Sc1cc(-n2c(=O)cc(C(F)(F)F)n(N)c2=O)c(F)cc1Cl [I.31-442] , please?
Output: 10

Task: Reported Oryza sativa (efficacy in %) for CCCCCOC(=O)COc1ncccc1Sc1cc(-n2c(=O)cc(C(F)(F)F)n(N)c2=O)c(F)cc1Cl [I.1-448] : what is it?
Output: 0

Task: Would you mind telling me what Oryza sativa (efficacy in %) value was observed for COC(=O)CCCOc1ncccc1Sc1cc(-n2c(=O)cc(C(F)(F)F)n(N)c2=O)c(F)cc1Cl [I.6-441] ?
Output: 20

Task: Can you share its Oryza sativa (efficacy in %)? I mean this molecule: CCOCCOC(=O)COc1ncccc1Sc1cc(-n2c(=O)cc(C(F)(F)F)n(N)c2=O)c(F)cc1Cl [I.1-2]
Output: 10

Task: Which Oryza sativa (efficacy in %) value belongs to Nn1c(C(F)(F)F)cc(=O)n(-c2cc(Sc3cccnc3OCCC(=O)OCc3ccccc3)c(Cl)cc2F)c1=O [I.5-457] ?
Output: 10

====

Test system: Triticum aestivum
Assay: Post-emergence crop plant compatibility
Assay type: in vivo
Conditions: application rate 1.25 g/ha
Each record here notes measured Triticum aestivum (efficacy in %).
Give your result in % as a bare value.

Here's what some known entries look like.
# MOLECULAR_STRING, READOUT_NUMBER
records = [
    ("Nn1c(C(F)(F)F)cc(=O)n(-c2cc(Sc3cccnc3OCC(=O)OC3COC3)c(Cl)cc2F)c1=O", 20),
    ("C=CCOC(=O)COc1ncccc1Sc1cc(-n2c(=O)cc(C(F)(F)F)n(N)c2=O)c(F)cc1Cl", 10),
    ("CCOCCOC(=O)COc1ncccc1Sc1cc(-n2c(=O)cc(C(F)(F)F)n(N)c2=O)c(F)cc1Cl", 0),
    ("Nn1c(C(F)(F)F)cc(=O)n(-c2cc(Sc3cccnc3OCC(=O)O)c(Cl)cc2F)c1=O", 20),
    ("CCCCOC(=O)COc1ncccc1Sc1cc(-n2c(=O)cc(C(F)(F)F)n(N)c2=O)c(F)cc1Cl", 10),
]

Next, consider the following molecule.
Task: Return reported Triticum aestivum (efficacy in %); argument: N#CCOC(=O)COc1ncccc1Sc1cc(-n2c(=O)cc(C(F)(F)F)n(N)c2=O)c(F)cc1Cl
Output: 20
